Provenance of the data: patent US20230339854A1

# protocol-description: In vivo pharmacokinetics and brain penetration in mice
# Set-up: species or system mouse
# assay-setup: male, C57BL/6, mouse, brain, ip, 20 mg/kg, mice; 20 mg/kg intraperitoneal; 8 hour; read-out: Brain Concentration
measure-name: concentration at 8 h

{"compound": "COc1ccc(OCC(c2ccc(OC)cc2)N2Cc3ccccc3C2=O)cc1 (racemic) [EU1180-438]", "reported-value": "60 nM"}

----------
# assay-target: rat GluN1-4a/GluN3B receptors (Rattus norvegicus, UniProt P35439+Q8VHN2)
# Construct: Human GluN3A (NP_597702.2) and rat GluN3B (NP_579842.2) were synthesized and subcloned into SP6 plasmids
# Sequence (Q8VHN2 25-1002, other chains not shown): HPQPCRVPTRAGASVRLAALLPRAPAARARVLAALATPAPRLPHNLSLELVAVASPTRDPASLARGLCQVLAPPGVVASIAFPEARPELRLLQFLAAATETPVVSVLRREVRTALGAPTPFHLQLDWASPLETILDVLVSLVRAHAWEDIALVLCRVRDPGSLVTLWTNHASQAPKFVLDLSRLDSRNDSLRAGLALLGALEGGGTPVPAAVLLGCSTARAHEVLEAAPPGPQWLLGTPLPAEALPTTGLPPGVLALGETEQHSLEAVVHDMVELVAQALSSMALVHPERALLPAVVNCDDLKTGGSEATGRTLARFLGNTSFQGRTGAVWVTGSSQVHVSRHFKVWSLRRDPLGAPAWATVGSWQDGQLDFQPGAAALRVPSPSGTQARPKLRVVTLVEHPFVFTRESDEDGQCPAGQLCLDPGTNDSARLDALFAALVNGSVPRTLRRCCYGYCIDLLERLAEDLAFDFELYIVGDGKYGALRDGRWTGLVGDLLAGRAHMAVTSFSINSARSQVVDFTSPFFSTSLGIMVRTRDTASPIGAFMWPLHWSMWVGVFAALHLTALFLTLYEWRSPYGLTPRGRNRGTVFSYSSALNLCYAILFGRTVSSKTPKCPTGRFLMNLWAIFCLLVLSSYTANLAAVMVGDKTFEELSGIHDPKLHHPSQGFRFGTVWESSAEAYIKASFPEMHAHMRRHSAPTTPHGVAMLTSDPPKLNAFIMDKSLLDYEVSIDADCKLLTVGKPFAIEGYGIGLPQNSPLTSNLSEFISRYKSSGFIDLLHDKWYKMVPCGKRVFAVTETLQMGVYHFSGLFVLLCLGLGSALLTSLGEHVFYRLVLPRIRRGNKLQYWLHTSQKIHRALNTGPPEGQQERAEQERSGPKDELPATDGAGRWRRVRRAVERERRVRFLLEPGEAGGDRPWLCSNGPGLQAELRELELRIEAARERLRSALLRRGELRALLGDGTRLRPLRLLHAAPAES
# protocol-description: Two-electrode voltage-clamp recordings of GluN1-4a/GluN3B receptors in the presence of CGP-78608 (Xenopus oocytes)
# assay-setup: pH 7.4; 0.5 μM CGP-78608; read-out: EC50, (95% CI) GluN1/GluN3B + CGP
measure-name: EC50 (nM)

{"compound": "COc1ccc(OCC(c2ccc(OC)cc2)N2Cc3ccccc3C2=O)cc1 (racemic) [EU1180-438]", "assay-target": "rat GluN1-4a/GluN3B receptors (Rattus norvegicus, UniProt P35439+Q8VHN2)", "reported-value": 2200}

----------
Listing: IC50 of selected compounds
# assay-target: human GluN1^FA,TL/GluN3A receptors (Homo sapiens, UniProt Q8TCU5)
# Construct: Human GluN3A (NP_597702.2) and rat GluN3B (NP_579842.2) were synthesized and subcloned into SP6 plasmids; expressed in transfected cells; host or cells: Xenopus laevis oocytes, cRNA injection (GluN1:GluN3 1:3)
# Sequence (Q8TCU5 24-1115, other chains not shown): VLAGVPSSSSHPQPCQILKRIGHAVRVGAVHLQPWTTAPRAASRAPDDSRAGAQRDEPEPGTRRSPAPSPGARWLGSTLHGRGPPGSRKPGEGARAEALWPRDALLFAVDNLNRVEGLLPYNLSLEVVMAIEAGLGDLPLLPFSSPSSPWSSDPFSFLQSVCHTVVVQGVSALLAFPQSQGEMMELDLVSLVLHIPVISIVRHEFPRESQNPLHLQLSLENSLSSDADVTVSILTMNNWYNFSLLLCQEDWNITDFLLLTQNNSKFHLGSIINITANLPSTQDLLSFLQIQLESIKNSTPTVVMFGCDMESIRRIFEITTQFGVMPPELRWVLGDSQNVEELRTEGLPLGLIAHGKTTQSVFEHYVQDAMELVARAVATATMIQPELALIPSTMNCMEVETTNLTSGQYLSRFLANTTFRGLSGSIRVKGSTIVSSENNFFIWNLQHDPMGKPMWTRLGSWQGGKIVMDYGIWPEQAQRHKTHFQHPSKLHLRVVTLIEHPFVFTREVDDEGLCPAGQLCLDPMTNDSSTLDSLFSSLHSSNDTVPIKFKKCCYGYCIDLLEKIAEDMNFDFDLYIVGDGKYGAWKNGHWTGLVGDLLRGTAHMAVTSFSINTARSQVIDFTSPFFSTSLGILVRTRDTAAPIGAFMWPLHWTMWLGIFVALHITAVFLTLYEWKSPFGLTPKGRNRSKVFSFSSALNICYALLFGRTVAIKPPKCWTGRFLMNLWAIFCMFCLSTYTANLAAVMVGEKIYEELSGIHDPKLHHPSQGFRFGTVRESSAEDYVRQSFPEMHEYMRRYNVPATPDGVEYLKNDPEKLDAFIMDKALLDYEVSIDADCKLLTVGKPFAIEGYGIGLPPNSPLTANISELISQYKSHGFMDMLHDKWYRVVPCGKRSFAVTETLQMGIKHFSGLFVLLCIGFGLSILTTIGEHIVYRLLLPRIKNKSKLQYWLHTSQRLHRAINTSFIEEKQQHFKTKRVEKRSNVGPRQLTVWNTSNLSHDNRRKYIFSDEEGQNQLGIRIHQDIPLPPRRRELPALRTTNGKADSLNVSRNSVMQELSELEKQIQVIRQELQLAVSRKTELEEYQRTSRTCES
# protocol-description: Two-electrode voltage-clamp recordings of GluN1^FA,TL/GluN3A receptors in Xenopus oocytes
# Type: cell-based
# assay-setup: hGluN1^FA,TL/hGluN3A; read-out: IC50 (95% CI) GluN3A

{"compound": "COc1ccc(OCC(c2ccc(OC(C)C)cc2)N2Cc3ccccc3C2=O)cc1 (stereo not shown) [EU1180-481]", "IC50, µM": 3.12}
{"compound": "COc1ccc(OCC(c2ccccc2)N2Cc3ccccc3C2=O)cc1 (stereo not shown) [EU1180-487]", "IC50, µM": 10.8}
{"compound": "COc1ccc(OCC(c2ccccc2)N2CCc3ccccc3C2=O)cc1 (stereo not shown) [EU1180-488]", "IC50, µM": 3.29}
{"compound": "COc1ccc(OCC(c2ccc(OC)cc2)N2CCc3ccccc3C2=O)cc1 (stereo not shown) [EU1180-489]", "IC50, µM": 10.8}

----------
# protocol-description: In vivo pharmacokinetics and brain penetration in mice
# Design: species or system mouse
# assay-setup: male, C57BL/6, mouse, brain, ip, 20 mg/kg, mice; 20 mg/kg intraperitoneal; 1 hour; read-out: Mean Ratio (brain to plasma)
measure-name: Kp at 1 h

{"molecule": "COc1ccc(OCC(c2ccc(OC)cc2)N2Cc3ccccc3C2=O)cc1 (racemic)", "measure-name": "Kp at 1 h", "reported-value": 1.79}

----------
# protocol-description: Maximum solubility by nephelometry
# Assay type: physicochemical
# assay-setup: aqueous buffer, kinetic from dmso stock; oocyte recording buffer (pH 7.4)

{"compound": "COc1ccc(OCC(c2ccc(OC)cc2)N2Cc3ccccc3C2=O)cc1 (racemic) [EU1180-438]", "value-units": "µM", "solubility at 90 min": 37}
